Target: Peroxisome proliferator-activated receptor alpha (Homo sapiens) (UniProt Q07869)
Sequence (Q07869 whole entry, the tested form may be a part): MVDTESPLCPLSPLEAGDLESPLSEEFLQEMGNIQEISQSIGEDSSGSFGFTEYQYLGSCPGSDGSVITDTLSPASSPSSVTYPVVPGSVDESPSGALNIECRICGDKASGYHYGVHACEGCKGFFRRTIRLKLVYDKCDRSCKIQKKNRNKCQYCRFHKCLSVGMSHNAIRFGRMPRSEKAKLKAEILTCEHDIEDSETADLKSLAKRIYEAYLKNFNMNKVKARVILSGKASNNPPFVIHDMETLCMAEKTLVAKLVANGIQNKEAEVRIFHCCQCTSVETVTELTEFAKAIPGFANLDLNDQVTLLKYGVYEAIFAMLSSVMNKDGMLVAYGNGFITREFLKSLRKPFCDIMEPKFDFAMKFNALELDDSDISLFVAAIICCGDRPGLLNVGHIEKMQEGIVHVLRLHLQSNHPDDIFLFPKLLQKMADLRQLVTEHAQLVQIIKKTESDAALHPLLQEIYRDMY
Assay: Transactivation of GAL4-fused human PPARalpha ligand binding domain transfected in african green monkey COS7 cells at 10 uM by luciferase reporter gene assay relative to GW7647
Assay type: cell-based
Settings: COS-7
Activity calls are given as the source filed them. The rule behind the calls is not given here.
outcome-measure: Activity

O=C(NCc1ccc(Cn2cccc2C(=O)O)cc1)Nc1ccc(OC(F)(F)F)cc1 : 67%
CCOC(=O)c1cccn1Cc1cccc(CNC(=O)NC2CCCCC2)c1 : inactive
CCOC(=O)c1cccn1Cc1ccccc1CNC(=O)NC12C[C@H]3C[C@@H](C1)C[C@@H](C2)C3 : inactive
O=C(NCc1ccccc1Cn1cccc1C(=O)O)NC12C[C@H]3C[C@@H](C1)C[C@@H](C2)C3 : inactive

Q: # return Activity for O=C(NCc1ccc(Cn2cccc2C(=O)O)cc1)NC12C[C@H]3C[C@@H](C1)C[C@@H](C2)C3 , test system: Peroxisome proliferator-activated receptor alpha (Homo sapiens) (UniProt Q07869)
Result: inactive

Q: # return Activity for O=C(NCc1cccc(Cn2cccc2C(=O)O)c1)Nc1ccc(OC(F)(F)F)cc1 , test system: Peroxisome proliferator-activated receptor alpha (Homo sapiens) (UniProt Q07869)
Result: 58%

Q: # return Activity for CCOC(=O)c1cccn1Cc1ccc(CNC(=O)NC23C[C@H]4C[C@@H](C2)C[C@@H](C3)C4)cc1 , test system: Peroxisome proliferator-activated receptor alpha (Homo sapiens) (UniProt Q07869)
Result: inactive

Q: # return Activity for CCOC(=O)c1cccn1Cc1ccccc1CNC(=O)NC1CCCCC1 , test system: Peroxisome proliferator-activated receptor alpha (Homo sapiens) (UniProt Q07869)
Result: inactive

Q: # return Activity for CCOC(=O)c1cccn1Cc1ccc(CNC(=O)Nc2ccc(OC(F)(F)F)cc2)cc1 , test system: Peroxisome proliferator-activated receptor alpha (Homo sapiens) (UniProt Q07869)
Result: inactive

====

Biological target: Bifunctional epoxide hydrolase 2 (Homo sapiens)
Sequence (P34913 whole entry): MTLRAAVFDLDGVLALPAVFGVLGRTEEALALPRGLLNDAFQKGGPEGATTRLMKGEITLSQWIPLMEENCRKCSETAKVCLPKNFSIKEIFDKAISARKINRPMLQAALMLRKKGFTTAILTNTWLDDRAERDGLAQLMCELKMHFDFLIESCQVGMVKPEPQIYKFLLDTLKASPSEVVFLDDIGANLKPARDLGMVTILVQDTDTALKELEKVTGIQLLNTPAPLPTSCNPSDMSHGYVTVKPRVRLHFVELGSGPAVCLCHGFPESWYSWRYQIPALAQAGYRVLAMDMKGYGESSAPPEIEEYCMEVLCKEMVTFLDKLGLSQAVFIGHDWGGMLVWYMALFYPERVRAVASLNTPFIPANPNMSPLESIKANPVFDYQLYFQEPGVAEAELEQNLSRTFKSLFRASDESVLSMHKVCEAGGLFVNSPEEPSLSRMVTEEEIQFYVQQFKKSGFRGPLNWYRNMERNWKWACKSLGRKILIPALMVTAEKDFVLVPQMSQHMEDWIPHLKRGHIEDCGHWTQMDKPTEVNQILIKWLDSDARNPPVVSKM
Experiment: Inhibition of recombinant soluble epoxide hydrolase using PHOME as substrate after 10 mins by fluorescence assay
outcome-measure: IC50 (nM)

Worked examples, 3 compounds total:
CCOC(=O)c1cccn1Cc1cccc(CNC(=O)NC2CCCCC2)c1 : 27
O=C(NCc1ccccc1Cn1cccc1C(=O)O)NC1CCCCC1 : 747
CCOC(=O)c1cccn1Cc1ccc(CNC(=O)NC23C[C@H]4C[C@@H](C2)C[C@@H](C3)C4)cc1 : 87

1: CCOC(=O)c1cccn1Cc1ccc(CNC(=O)NC2CCCCC2)cc1
2: CCOC(=O)c1cccn1Cc1ccccc1CNC(=O)Nc1ccc(OC(F)(F)F)cc1
Q: Quick one: lower IC50, 1 or 2 ? Give the label under which the chosen entry appears.
Result: 1
(1: 23 nM, 2: 2010 nM)

====

Molecular target: Bifunctional epoxide hydrolase 2 (Homo sapiens)
Experiment: Inhibition of recombinant soluble epoxide hydrolase using PHOME as substrate after 10 mins by fluorescence assay
pIC50: −log10 of the molar value.
outcome-measure: pIC50

O=C(NCc1ccc(Cn2cccc2C(=O)O)cc1)NC1CCCCC1 : 6.60
CCOC(=O)c1cccn1Cc1cccc(CNC(=O)NC23C[C@H]4C[C@@H](C2)C[C@@H](C3)C4)c1 : 7.34
CCOC(=O)c1cccn1Cc1ccccc1CNC(=O)NC1CCCCC1 : 7.41
CCOC(=O)c1cccn1Cc1ccccc1CNC(=O)NC12C[C@H]3C[C@@H](C1)C[C@@H](C2)C3 : 7.37
O=C(NCc1ccc(Cn2cccc2C(=O)O)cc1)NC12C[C@H]3C[C@@H](C1)C[C@@H](C2)C3 : 7.14

P: O=C(NCc1cccc(Cn2cccc2C(=O)O)c1)NC1CCCCC1
Q: O=C(NCc1ccc(Cn2cccc2C(=O)O)cc1)Nc1ccc(OC(F)(F)F)cc1
Q: Quick one: lower pIC50, P or Q ? Give the label under which the chosen entry appears.
Result: P
(P: 5.72, Q: 6.59)

1: O=C(NCc1cccc(Cn2cccc2C(=O)O)c1)Nc1ccc(OC(F)(F)F)cc1
2: O=C(NCc1cccc(Cn2cccc2C(=O)O)c1)NC12C[C@H]3C[C@@H](C1)C[C@@H](C2)C3
Q: Quick one: lower pIC50, 1 or 2 ? Give the label under which the chosen entry appears.
Result: 1
